Measured values drawn from patent US12336991B2 for this set.

- target or test system: UniProt P00748
- Sequence (P00748 373-615 limits assumed): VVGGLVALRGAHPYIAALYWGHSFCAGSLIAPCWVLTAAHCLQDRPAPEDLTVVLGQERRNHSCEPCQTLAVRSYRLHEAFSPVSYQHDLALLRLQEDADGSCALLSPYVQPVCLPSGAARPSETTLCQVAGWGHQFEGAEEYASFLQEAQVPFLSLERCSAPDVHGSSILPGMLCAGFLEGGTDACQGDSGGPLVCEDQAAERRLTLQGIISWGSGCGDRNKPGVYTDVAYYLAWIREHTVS
- Sequence (P00748 20-372 partner limits assumed): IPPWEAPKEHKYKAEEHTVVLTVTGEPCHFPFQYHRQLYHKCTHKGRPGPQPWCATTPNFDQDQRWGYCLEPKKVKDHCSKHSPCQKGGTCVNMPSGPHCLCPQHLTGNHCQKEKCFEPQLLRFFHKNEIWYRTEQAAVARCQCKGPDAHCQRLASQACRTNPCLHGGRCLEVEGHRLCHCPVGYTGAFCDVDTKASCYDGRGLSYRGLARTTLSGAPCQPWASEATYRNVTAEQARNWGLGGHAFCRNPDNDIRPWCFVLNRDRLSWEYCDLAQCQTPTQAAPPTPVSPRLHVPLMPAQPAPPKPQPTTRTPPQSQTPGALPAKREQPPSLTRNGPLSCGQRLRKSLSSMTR
Catalogue of Ki readings, one per entry.

Please review the following examples before continuing.
| compound | target or test system | result type | recorded value |
| --- | --- | --- | --- |
| Cn1nnc2cc(CNC(=O)[C@@H]3CC(Cc4ccc(OC(F)(F)F)cc4)CN3C(=O)[C@H](N)CCC(=O)N3CCCC3)ccc21 (some centres unmarked) | UniProt P00748 | Ki | < 200 nM |
| COc1ccc2c(c1)CCNC2C(=O)N1C[C@H](Cc2ccncc2)C[C@H]1C(=O)NCc1ccc2c(c1)nnn2C (some centres unmarked) | UniProt P00748 | Ki | > 2000 nM |
| COc1ccc(C[C@@H]2C[C@@H](C(=O)NCc3ccc4c(c3)nnn4C)N(C(=O)[C@H]3CC(c4cncn4C)CN3)C2)cc1 (some centres unmarked) | UniProt P00748 | Ki | > 2000 nM |
| Cn1nnc2cc(CNC(=O)[C@@H]3CC(Cc4ccc(C(F)(F)F)cc4)CN3C(=O)[C@H](N)CCC(=O)N3CCCC3)ccc21 (some centres unmarked) | UniProt P00748 | Ki | 200 to 2000 nM |
| COc1cc(CNC(=O)[C@@H]2C[C@@H](C)CN2C(=O)[C@H](N)CCc2ccccc2)ccc1CN | UniProt P00748 | Ki | 200 to 2000 nM |

Q: // returns reported Ki for input Cn1nnc2cc(CNC(=O)[C@@H]3CC(Cc4ccnc(C(F)(F)F)c4)CN3C(=O)[C@H](N)CCC(=O)N3CCCC3)ccc21 (some centres unmarked)
Result: 200 to 2000 nM

Q: // returns reported Ki for input Cn1nccc1C[C@H]1C[C@@H](C(=O)NCc2ccc3c(c2)nnn3C)N(C(=O)[C@H](N)CCC(=O)N2CCCC2)C1
Result: 200 to 2000 nM

Q: // returns reported Ki for input Cn1nnc2cc(CNC(=O)[C@@H]3CC(Cc4ccnc(F)c4)CN3C(=O)[C@H](N)CCC(=O)N3CCCC3)ccc21 (some centres unmarked)
Result: 200 to 2000 nM
